Quick reference for apparent KD of MS2 coat protein among some sequences
# Test system: MS2 coat protein
# experimental-protocol: apparent KD of MS2 coat protein; designed switch direction (-1 OFF switch, 1 ON switch): -1; higher = weaker reporter binding
# protocol-conditions: Eterna round: R95; input ligand: none
Report only the number, with the unit nM understood.

Here are 2 sequences together with their reported answers.
AAUCGACAUGAGGAUCACCCAUGUUAGGAUAUGCGGAAUCGGUCAAUCAAUCGAUCAAGCAGAAGGGACGGGUU [Candy Rainbow] (puzzle: Exclusion 1): 34.2
GAGAAAUUAUAGGAUAUCGAAAGGAUAAUUUAACGAGAAGGAUGAACAUGAGGAUCACCCAUGUGGUAUCAUGG [JL-ex6-3.11] (puzzle: Exclusion 6): 157

// switching to the query sequence
Prompt: So what apparent KD of MS2 coat protein did AAGAAGAUAGGAUAUACGAGGAGAGGAGAGAGAAGGUGAGGACAUGAGGAUCACCCAUGUAGAAGGAUCAGGAA [JR_Exclu2_Sub064] (puzzle: Exclusion 2) get with MS2 coat protein?
Completion: 89.9
